- Tested on: K4 kissing-loop RNA reporter;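 further: bound reporter read as fluorescence of individual clusters on recovered sequencing chips by microscopy, with normalized cluster intensities fitted with a binding model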
- protocol-notes: apparent KD of K4 kissing-loop reporter; higher = weaker reporter binding
- cond: Eterna round: R107; input ligand: FMN 200 uM
endpoint-name: apparent KD of K4 kissing-loop reporter (nM)

CUCGUGGGUUUGAGAGGGCUUGUGGGAAGUAAGGAUAUUUAGGGAGGAAGAAGGUACUAUAGAAUAUAGUGAUGUUAUAUAUGGG [SSFMNA.Y] = 301
UACACGACUCGUGUAAACCGAGGUAACAGGCAGGAUAUGUAACGGAACAGAAGGGCCAUGUAGCGUGUCCAGUGAUGUUGGAUGC [Betilare] = 199
UAAAAUAAAUAAUAGAGAGCGUUACUCGAAGGAGCGACGAAUUCGUCAGGUAGGUCGCGAGUGAUGUUCGCAAAUACGCUCUCAU [AK2 Exc Arginine A] = 838

---

- System: MS2 coat protein
- protocol-notes: apparent KD of MS2 coat protein; designed switch direction (-1 OFF switch, 1 ON switch): -1; higher = weaker reporter binding
- cond: input ligand: none
endpoint-name: apparent KD of MS2 coat protein

GGAGGAAGAGAGGAUAUGCGCUCAAGGAGAAAAGCAGAAGGUUCAACAUGAGGAUCACCCAUGUAUGAUCCUCA [AK-MS2ROC-r4-exclusion6-4] (Eterna round: R97, puzzle: Exclusion 6) = 203 nM
AUUUACGGAGGAUAUACUUGAGGAUCACCCAAGUGGAGUCCCGUUUGGGCGGUAAAUAGUAGAAGGCCGUCCUA [jl-ex3-4.46 ViennaUCT mod] (Eterna round: R97, puzzle: Exclusion 3) = 16.2 nM
AUAAUGUGAGGAUAUCAGUCGACUAGCCUCGGCUAGUCGACUGAGAAGGUACAUGAGGAUCACCCAUGUGGUUC [E4/11-B2] (Eterna round: R97, puzzle: Exclusion 4) = 429 nM
AAGGGUGCUUUCGGAACGACAUGAGGAUCACCCAUGUAGACUGAGGAUAUCUACUUCUAAGGACGGGAGAAGGCAGUGUAAUGU [Ex NG3 #70] (Eterna round: R96, puzzle: Exclusion NG 3) = 39.8 nM
ACAUGAGGAUCACCCAUGUAAACAUAAUGGCUGAUGUAGAGUCAGGAUAUGCGUGGCUAACAAUCGCAGAAGGGACAAGACUGG [Deportation 30 - Jieux - Exclusion NG 3] (Eterna round: R96, puzzle: Exclusion NG 3) = 25 nM
UUAAUUAAUAAUUAAGAUCAUUACAUGAGGAUCACCCAUGUCGAGGAUAUCAGCUCGAUUAGAGCUGAGAAGGCGACAAAUUAU [ExNG3/13-B1] (Eterna round: R96, puzzle: Exclusion NG 3) = 579 nM
ACAUGAGGAUCACCCAUGUCAGGCGGGUCUACUCCGGCUGUUGAGGAUAUAGUUCGGUAUCCGCGCUAGAAGGUGAGGGCCGGC [Aenatbe mod 23] (Eterna round: R96, puzzle: Exclusion NG 3) = 21.8 nM
GAAGUUAGAGGAUAUACAUGAGGAUCACCCAUGUAUGAAGUUAACUUUGUAUAUAAAUGUAGAAGGCUAACUUC [-21.1, -19.6 kcal, 36% A] (Eterna round: R97, puzzle: Exclusion 3) = 25.6 nM
UUCAUUGCAGGAUAUACAUGAGGAUCACCCAUGUGACCAGUGGCCUGUUGCGGCUCCAGUAGAAGGGCAUGUGU [Eternabot (L2) Solution 89] (Eterna round: R97, puzzle: Exclusion 3) = 61.2 nM
